Reported EC50 values are given for each entry in this list.
molecular target: human AHR (Homo sapiens, UniProt P35869); assay: Human AHR agonist luciferase assay (CYP1A1 promoter Nano-luc reporter in HepG2 cells);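 further: stably transfected HepG2 clone, DRE-containing 1200 bp promoter region driving Nano-luc, treated 4 to 24 h with 11-point dilutions in tryptophan-free medium, medium-only wells as baseline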
Sequence (P35869 11-848): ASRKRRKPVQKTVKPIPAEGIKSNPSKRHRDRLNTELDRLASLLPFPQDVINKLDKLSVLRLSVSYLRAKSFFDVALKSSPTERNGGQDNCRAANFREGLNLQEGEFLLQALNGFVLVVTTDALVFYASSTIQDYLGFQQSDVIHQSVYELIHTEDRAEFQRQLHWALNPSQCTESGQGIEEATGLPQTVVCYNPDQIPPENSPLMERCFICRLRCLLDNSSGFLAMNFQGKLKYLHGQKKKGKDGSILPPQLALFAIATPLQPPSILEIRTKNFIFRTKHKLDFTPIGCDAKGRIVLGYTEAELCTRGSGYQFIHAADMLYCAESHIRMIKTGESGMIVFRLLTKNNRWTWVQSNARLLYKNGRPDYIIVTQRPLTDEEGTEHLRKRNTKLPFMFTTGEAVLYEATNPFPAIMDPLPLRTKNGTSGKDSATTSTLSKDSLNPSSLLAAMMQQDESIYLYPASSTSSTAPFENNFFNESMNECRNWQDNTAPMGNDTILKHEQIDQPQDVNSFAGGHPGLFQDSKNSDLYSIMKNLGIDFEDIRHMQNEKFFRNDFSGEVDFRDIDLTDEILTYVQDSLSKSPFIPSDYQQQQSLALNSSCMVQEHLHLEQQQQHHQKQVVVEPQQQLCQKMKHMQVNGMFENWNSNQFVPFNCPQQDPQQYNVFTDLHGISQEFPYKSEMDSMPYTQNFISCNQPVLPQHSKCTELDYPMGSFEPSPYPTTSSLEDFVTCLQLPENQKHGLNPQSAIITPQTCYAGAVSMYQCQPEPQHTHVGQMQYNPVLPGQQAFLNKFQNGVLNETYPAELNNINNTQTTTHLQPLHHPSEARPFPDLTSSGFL

Please give the measured EC50 for this compound: O=C(c1nc(C2(F)CCOC2=O)cs1)c1c[nH]c2ccccc12 (stereo not drawn) < 500 nM

Could you tell me which EC50 is on file for COc1ccc2[nH]cc(C(=O)c3nc(C4(F)CCOC4=O)cs3)c2c1 (stereo not drawn) ? 500 to 2000 nM

Using the record for COc1ccc2c(C(=O)c3nc(C4CCOC4=O)cs3)c[nH]c2c1 (stereo not drawn) , report its EC50. < 500 nM

Item O=C(c1nc(C2CCOC2=O)cs1)c1cn(COP(=O)(O)O)c2ccccc12 (stereo not drawn) has what recorded EC50? 500 to 2000 nM

Which EC50 is reported for this compound? O=C1OCC=C1c1csc(C(=O)c2c[nH]c3ccccc23)n1 < 500 nM

----------
molecular target: mouse AHR (Mus musculus, UniProt P30561); experiment: Mouse AHR agonist luciferase assay (6x XRE Nano-luc reporter in Hepa1-6 cells);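 further: stable Hepa1-6 reporter line, 4–24 h exposure, 11-point serial dilution, Nano-Glo luminescence as fold over medium-only baseline, EC50 from four-parameter fit of activation fold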
Sequence (P30561 10-805 limits assumed): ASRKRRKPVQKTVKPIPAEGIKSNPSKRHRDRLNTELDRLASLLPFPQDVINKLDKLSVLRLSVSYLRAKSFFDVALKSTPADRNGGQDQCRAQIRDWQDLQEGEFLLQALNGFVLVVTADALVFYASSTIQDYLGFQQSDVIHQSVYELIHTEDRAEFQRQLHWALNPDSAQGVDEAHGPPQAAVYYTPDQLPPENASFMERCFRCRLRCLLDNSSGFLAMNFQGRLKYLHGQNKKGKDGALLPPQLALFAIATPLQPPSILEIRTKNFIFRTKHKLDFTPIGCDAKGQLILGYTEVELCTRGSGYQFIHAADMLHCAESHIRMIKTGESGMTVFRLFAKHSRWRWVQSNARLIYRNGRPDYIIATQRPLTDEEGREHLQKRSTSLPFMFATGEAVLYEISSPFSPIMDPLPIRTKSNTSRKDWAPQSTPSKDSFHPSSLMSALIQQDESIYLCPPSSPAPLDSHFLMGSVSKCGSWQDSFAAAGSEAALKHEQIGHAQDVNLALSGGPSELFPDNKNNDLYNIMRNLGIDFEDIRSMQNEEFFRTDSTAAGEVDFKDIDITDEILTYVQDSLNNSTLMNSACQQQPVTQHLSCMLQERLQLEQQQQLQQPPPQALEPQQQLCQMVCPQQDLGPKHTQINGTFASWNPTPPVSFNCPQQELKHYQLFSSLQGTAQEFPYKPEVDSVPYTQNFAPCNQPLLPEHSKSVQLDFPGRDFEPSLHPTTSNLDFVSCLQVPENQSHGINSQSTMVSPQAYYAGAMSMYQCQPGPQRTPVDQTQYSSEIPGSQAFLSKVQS
Sequence (P53762 whole entry partner): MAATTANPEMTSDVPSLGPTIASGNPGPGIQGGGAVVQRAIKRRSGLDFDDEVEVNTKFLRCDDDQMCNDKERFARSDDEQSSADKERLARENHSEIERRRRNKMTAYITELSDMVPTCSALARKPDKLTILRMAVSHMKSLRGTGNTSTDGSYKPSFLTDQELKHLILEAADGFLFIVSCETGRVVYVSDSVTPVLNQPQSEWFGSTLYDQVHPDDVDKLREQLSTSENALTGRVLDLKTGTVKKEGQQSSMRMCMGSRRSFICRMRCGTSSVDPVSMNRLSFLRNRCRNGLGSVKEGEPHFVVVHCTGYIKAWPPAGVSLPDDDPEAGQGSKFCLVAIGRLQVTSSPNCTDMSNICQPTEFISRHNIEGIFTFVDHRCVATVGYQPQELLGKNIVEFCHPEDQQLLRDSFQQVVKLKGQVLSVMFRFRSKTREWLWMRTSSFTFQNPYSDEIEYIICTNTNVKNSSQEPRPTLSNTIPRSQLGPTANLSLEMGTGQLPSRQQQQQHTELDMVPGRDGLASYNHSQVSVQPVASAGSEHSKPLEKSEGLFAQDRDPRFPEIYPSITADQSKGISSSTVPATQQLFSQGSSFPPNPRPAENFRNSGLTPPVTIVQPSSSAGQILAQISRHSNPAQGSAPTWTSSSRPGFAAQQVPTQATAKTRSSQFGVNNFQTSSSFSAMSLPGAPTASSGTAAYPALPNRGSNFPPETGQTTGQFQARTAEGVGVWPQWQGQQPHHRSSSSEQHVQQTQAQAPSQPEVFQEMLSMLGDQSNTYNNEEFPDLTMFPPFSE
pEC50: −log10 of the molar value.
assayMetric: pEC50

Consider the compound CC1CC(c2csc(C(=O)c3c[nH]c4ccc(F)cc34)n2)C(=O)O1 (stereo not shown) [Compound 8-4] and give its measured pEC50. > 7.00

Form field: reported pEC50 of O=C(c1nc(C2(Cl)CCOC2=O)cs1)c1c[nH]c2cc(F)ccc12 (stereo not shown) [Compound 4-2] > 7.00

----------
target: mouse AHR (Mus musculus); assay: Mouse AHR agonist luciferase assay (6x XRE Nano-luc reporter in Hepa1-6 cells); details: read-out: Hepa 1-6 EC50; AHR activation, mouse hepatoma Hepa1-6 reporter cells, incubated 4 to 24 hours
pEC50: −log10 of the molar value.
assayMetric: pEC50

For the record O=C(c1nc(C2CCOC2=O)cs1)c1c[nH]c2ccccc12 (single isomer, unassigned) [Compound 1-isomer-B] , what value of pEC50 is listed for mouse AHR (Mus musculus)? > 7.00

----------
Target: rat AHR (Rattus norvegicus, UniProt P41738)
Construct: The reporter gene was introduced into a genome of rat hepatoma H-4-II-E cells via lentiviral infection; endogenous in cells; host or cells: H-4-II-E (rat hepatoma) with a lentivirally integrated 6x XRE Nano-luc reporter
Sequence (P41738 10-853): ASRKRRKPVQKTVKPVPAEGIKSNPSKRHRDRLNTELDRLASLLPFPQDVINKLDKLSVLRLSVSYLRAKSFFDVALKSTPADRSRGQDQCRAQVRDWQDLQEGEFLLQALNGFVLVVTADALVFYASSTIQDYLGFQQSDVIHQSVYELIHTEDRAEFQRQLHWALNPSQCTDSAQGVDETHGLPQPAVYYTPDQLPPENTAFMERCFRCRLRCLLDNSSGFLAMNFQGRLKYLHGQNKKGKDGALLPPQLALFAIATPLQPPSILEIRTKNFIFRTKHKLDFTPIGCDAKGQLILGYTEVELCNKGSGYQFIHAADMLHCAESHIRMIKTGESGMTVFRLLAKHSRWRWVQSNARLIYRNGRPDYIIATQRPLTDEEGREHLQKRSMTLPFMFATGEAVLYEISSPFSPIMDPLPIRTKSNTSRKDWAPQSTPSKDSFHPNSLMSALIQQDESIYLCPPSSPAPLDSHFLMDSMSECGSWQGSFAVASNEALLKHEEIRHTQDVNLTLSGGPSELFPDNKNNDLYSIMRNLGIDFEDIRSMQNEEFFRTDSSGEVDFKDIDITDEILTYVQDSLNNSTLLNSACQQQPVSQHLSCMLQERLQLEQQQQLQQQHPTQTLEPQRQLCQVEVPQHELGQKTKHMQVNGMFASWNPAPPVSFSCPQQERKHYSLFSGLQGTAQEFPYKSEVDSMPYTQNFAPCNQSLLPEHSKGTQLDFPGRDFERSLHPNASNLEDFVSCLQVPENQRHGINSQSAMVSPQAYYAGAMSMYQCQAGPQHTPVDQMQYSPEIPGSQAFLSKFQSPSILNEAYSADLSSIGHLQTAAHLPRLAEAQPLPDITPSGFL
Assay: Rat AHR agonist luciferase assay (6x XRE Nano-luc reporter in H-4-II-E cells)
Format: cell-based
Conditions: AHR activation, rat hepatoma H-4-II-E reporter cells, incubated 4 to 24 hours; read-out: H4IIE EC50
Property: EC50; scope: individual molecules

>>> print(df.to_string())
                                   molecule                            targetorsystem  observedvalue
0  COc1ccc2c(C(=O)c3nc(C4(O)CCOC4=O)cs3)c[nH]c2c1 (centres unmarked) [Compound 2-3]  rat AHR (Rattus norvegicus, UniProt P41738)      ≤ 0.01 µM

Dear colleague, I am looking for the recorded EC50 of the following molecule: O=C(c1nc(C2CCOC2=O)cs1)c1c[nH]c2cc(F)ccc12 (centres unmarked) [Compound 1-2] ≤ 0.01 µM

Looking for the measured EC50 of CN1CCC(c2csc(C(=O)c3c[nH]c4cc5c(cc34)OCO5)n2)C1=O (centres unmarked) [Compound 7-6] , can you help? 2 to 100 µM

Could you share which EC50 value was measured for O=C(c1nc(C2CCOC2=O)cs1)c1c[nH]c2cc3c(cc12)OCO3 (centres unmarked) [Compound 1-6] ? ≤ 0.01 µM

Given the molecule CN1CCC(c2csc(C(=O)c3c[nH]c4ccc(F)cc34)n2)C1=O (centres unmarked) [Compound 7-4] , what is its reported EC50? 2 to 100 µM

Entry COc1ccc2c(C(=O)c3nc(C4CCOC4=O)cs3)c[nH]c2c1 (centres unmarked) [Compound 1-3] : reported EC50 = ? ≤ 0.01 µM

Looking for the measured EC50 of O=C(c1nc(C2(Cl)CCOC2=O)cs1)c1c[nH]c2ccccc12 (centres unmarked) [Compound 4] , can you help? ≤ 0.01 µM

Look up EC50: O=C(c1nc(C2(Cl)CCOC2=O)cs1)c1c[nH]c2cc(F)ccc12 (centres unmarked) [Compound 4-2] ≤ 0.01 µM

Which EC50 value is on record for O=C(c1nc(C2CCOC2=O)cs1)c1c[nH]c2ccccc12 (single isomer, unassigned) [Compound 1-isomer-A] ? ≤ 0.01 µM
